# Test system: PC-3 prostate
# protocol_description: NCI-60 one-dose screen, 48 h
# measurement_conditions: 10 µM unless noted
About 83,000 compounds went through this panel and 20% of them were active in at least one assay; those are over-represented in the sample as a whole. Activity calls are given as the source filed them. Rule for the calls: active = growth percent below 10; inactive = the rest.
Outcomes you can answer with include only these: Y for active, N for inactive

Field: outcome | Entry: Cc1nc([C@H]2CC[C@H]3[C@@H]4CCC5=CC(=O)CC[C@]5(C)[C@H]4CC[C@]23C)cs1
N

Field: outcome | Entry: CCCc1cc2c(cc1CN(Cc1cc3c(cc1CCC)OCO3)C(=N)OCC)OCO2
N

Field: outcome | Entry: COc1ccc2[nH]cc(/C=C3\C(=O)Nc4ccccc43)c2c1
N

Field: outcome | Entry: CC(C)COC(=O)NC(C)(C)C
N

Field: outcome | Entry: O=C(Nc1ccc2[nH]c3ccccc3c2c1)c1ccccc1Cl
N

Field: outcome | Entry: N#Cc1c(N)n(C2OC(CO)C(O)C2O)c2ncnc(N)c12 (stereo unspecified)
Y

* * *

# System: SW-620 colon
# protocol_description: NCI-60 one-dose screen, 48 h
# measurement_conditions: 10 µM unless noted
The panel holds about 83,000 compounds, 20% with a hit somewhere; the sample as a whole holds those more often. Active and inactive are the calls of the source. Rule for the calls: active = growth percent below 10; inactive = the rest.
Outcomes you can answer with include only these: label 1 for active, label 0 for inactive

Field: outcome | Entry: CCC(=O)NC(O)C(Cl)(Cl)C(C)Cl (stereo unspecified)
label 0

Field: outcome | Entry: Cc1ccc(NC(=O)c2nc(S(C)(=O)=O)oc2-c2ccc(F)cc2)cc1Nc1ccc2ncn(C)c(=O)c2c1
label 1

Field: outcome | Entry: CN=C1C=C/C(=N/N=c2/ccn(O)cc2C)C=C1C
label 0

Field: outcome | Entry: NC(=O)Nc1ccc2ncnc(Nc3cccc(O)c3)c2c1
label 0

Field: outcome | Entry: Clc1ccc(Nc2ncnc3c2sc2ncccc23)cc1
label 0

Field: outcome | Entry: O=C(O)C1[S][Sb]([CH](C(=O)O)[CH](C(=O)O)[Sb]2[S]C(C(=O)O)C(C(=O)O)[S]2)[S]C1C(=O)O (stereo unspecified)
label 0

* * *

# Tested on: SF-268 CNS
# protocol_description: NCI-60 one-dose screen, 48 h (100 = growth as untreated, 0 = no growth, -100 = all killed)
# measurement_conditions: 10 µM unless noted
This is part of a sample that, as a whole, favours compounds with a hit. Of some 83,000 tested, about 20% had one in any assay. Activity calls are given as the source filed them. Rule for the calls: active = growth percent below 10; inactive = the rest.
Assignment: determine reported growth for the given compounds.

For the compound Cc1cc(NC(=O)C2c3ccccc3C(=O)N(CC(C)C)C2c2cccs2)no1 (centres undefined) , what growth is on record?
27.8% (inactive)

For the compound CC(=O)OC1Oc2cc(C)c(C)cc2-c2oc(=O)c(-c3cc4ccccc4oc3=O)cc21 (centres undefined) , what growth is on record?
61.3% (inactive)

For the compound Cc1cc(C#Cc2ccccc2)ccc1-n1c(/C=C/c2ccc(F)cc2)nc2ccccc2c1=O , what growth is on record?
86.4% (inactive)

For the compound COC1CC(N)C2OC(c3ccccc3)OCC2O1 (centres undefined) , what growth is on record?
108% (inactive)

For the compound Cc1ccc(NC(=O)c2[nH]c(SCCN(C)C)nc2-c2ccc(F)cc2)cc1Nc1ccc2ncn(C)c(=O)c2c1 , what growth is on record?
71.1% (inactive)

For the compound CN(C)c1ccc(Nc2c3ccccc3nc3ccccc23)cc1 , what growth is on record?
27.7% (inactive)

For the compound Clc1ccc(-c2nc(Br)cn3ccnc23)cc1 , what growth is on record?
81.7% (inactive)

For the compound COc1ccc(NC(=O)c2ccc(C(F)(F)F)nc2Nc2ccc(Cl)cc2C)cc1Cl , what growth is on record?
38.2% (inactive)

For the compound COc1ccc(C2C3CCc4ccccc4C3=NN2C(=O)c2cc(OC)c(OC)c(OC)c2)cc1O (centres undefined) , what growth is on record?
105% (inactive)

For the compound COc1ccc(-c2[nH]nc(N)c2-c2cc(OC)c(OC)c(OC)c2)cc1 , what growth is on record?
15.1% (inactive)

For the compound COc1ccc(-c2n[nH]nc2-c2cc(OC)c3c(c2)OCO3)cc1 , what growth is on record?
16.7% (inactive)

For the compound COc1ccc([C@@H]2[C@@H](Cl)C(=O)N2c2cc(OC)c(OC)c(OC)c2)cc1C , what growth is on record?
30.2% (inactive)

For the compound COc1cc2c(cc1OCCCOc1cc3c(cc1OC)C(=O)N1CCC[C@H]1C=N3)C=CC(C)(C)O2 , what growth is on record?
91.2% (inactive)

For the compound Fc1cnccc1-c1nc2ccc3[nH]ncc3c2c2c1CCCC2 , what growth is on record?
31.9% (inactive)

For the compound CN(C)CCOc1nc2c3ccncc3cc(-c3cccc(Cl)c3)c2c2cnccc12 , what growth is on record?
35.1% (inactive)

For the compound O=Cc1ccc2nc(C(Cl)(Cl)Cl)ccc2c1 , what growth is on record?
107% (inactive)

For the compound c1ccc2c(c1)cnc1ccccc12 , what growth is on record?
97.4% (inactive)

For the compound CCOc1c(C#N)c2c(N)ncnc2n1C1OC(CO)C(O)C1O (centres undefined) , what growth is on record?
25.2% (inactive)

For the compound COc1ccc(C(=O)c2c(N)nc3n2CCCC3)cc1OC , what growth is on record?
106% (inactive)
